# Target Of Assay: TbSir2rp1 (Trypanosoma brucei brucei)
# Construct: The TbSir2rp1 gene was cloned into the pET24(+) expression plasmid (Novagen); His tag; made in house; host or cells: Escherichia coli BL21-Codon Plus (DE3)-RIL
# Sequence (Q57V41 whole entry): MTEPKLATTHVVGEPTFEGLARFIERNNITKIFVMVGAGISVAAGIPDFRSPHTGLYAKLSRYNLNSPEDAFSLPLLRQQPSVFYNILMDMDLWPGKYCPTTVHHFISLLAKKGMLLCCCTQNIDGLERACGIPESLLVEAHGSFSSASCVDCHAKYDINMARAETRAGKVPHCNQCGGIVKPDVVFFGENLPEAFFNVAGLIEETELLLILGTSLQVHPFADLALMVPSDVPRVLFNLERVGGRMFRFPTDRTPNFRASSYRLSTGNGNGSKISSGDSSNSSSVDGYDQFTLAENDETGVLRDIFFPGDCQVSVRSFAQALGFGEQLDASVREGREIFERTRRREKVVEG
# Test: biochemical
# Condition Notes: read-out: % Inhibition TbSir2rp1, Table S2, complete fragment library, single concentration of 500 μM
Property: inhibition at 500 µM (%)
Value expressed in %; do not type the unit.

Answered cases to consult:
[
  {
    "Compound": "Cc1cn([C@H]2C[C@H](N=[N+]=[N-])[C@@H](CO)O2)c(=O)[nH]c1=O",
    "inhibition at 500 µM [%]": 8.2
  },
  {
    "Compound": "NNC(=O)/C=C/c1ccccc1",
    "inhibition at 500 µM [%]": 42
  },
  {
    "Compound": "CC(=O)NCCN1C(=O)CNC1=O",
    "inhibition at 500 µM [%]": 5.8
  },
  {
    "Compound": "CN1C(=O)CN=C(c2ccccc2)c2cc(Cl)ccc21",
    "inhibition at 500 µM [%]": 37
  },
  {
    "Compound": "Cc1ncc([N+](=O)[O-])n1CCO [CC1=NC=C([N+]([O-])=O)N1CCO]",
    "inhibition at 500 µM [%]": 14
  },
  {
    "Compound": "Cc1cc(Cl)ncc1N",
    "inhibition at 500 µM [%]": 8.8
  }
]

In: For the compound `O=C1NCCn2cccc21` , give its measured inhibition at 500 µM value.
Out: -35

In: For the compound `Cc1oc2ncccc2c1C(=O)O` , give its measured inhibition at 500 µM value.
Out: 19

In: For the compound `CCOC(=O)c1c(C)oc2nc(Cl)ccc12` , give its measured inhibition at 500 µM value.
Out: -29

In: For the compound c1ccc(C2CN3CCSC3=N2)cc1 (stereo not shown) , give its measured inhibition at 500 µM value.
Out: 10
